B1: CDS2 (parent)
chain: IHSIALSTFASLIGPFGGFFASGF

# Variants of: B1
# assayProtocol: protein stability index of a GFP-peptide fusion (GPS, HEK-293T) (PSI 1-6); higher = more stable;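 further: lentivirally expressed fusions sorted by FACS into six bins by GFP to DsRed ratio, PSI derived from sequencing read proportions per bin multiplied by bin number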
# assaySetup: c terminus: a fixed tail appended
We use 3 as the dividing line for protein stability index: on or above the line is Fulfilled, below is Not fulfilled.

Example entries begin here.
| mutationAnnotation | class |
| --- | --- |
| G14I | Not fulfilled |
| G17D | Fulfilled |
| G17S | Fulfilled |

Ask: Evaluate A5D : protein stability index at minimum 3?
Reply: Not fulfilled

Ask: Same question for H2Y please.
Reply: Fulfilled

Ask: Same question for L12W please.
Reply: Fulfilled

Ask: Same question for A21T please.
Reply: Fulfilled

Ask: Same question for F19C please.
Reply: Not fulfilled

Ask: Same question for I13L please.
Reply: Not fulfilled

Ask: Same question for G23I please.
Reply: Not fulfilled

Ask: Same question for S22L please.
Reply: Not fulfilled

Recorded values, source the supplement of paper PMC10567573.
